Biological target: Sigma non-opioid intracellular receptor 1 (Cavia porcellus, UniProt Q60492)
Sequence (Q60492 whole entry): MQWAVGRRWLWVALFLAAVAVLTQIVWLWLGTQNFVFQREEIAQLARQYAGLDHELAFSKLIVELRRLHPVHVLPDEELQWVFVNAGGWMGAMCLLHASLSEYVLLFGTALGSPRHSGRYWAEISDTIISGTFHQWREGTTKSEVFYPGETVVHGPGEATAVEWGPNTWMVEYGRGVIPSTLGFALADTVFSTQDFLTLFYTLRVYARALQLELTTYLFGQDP
Experiment: Displacement of [3H](+)-pentazocine ((+)-[2S-(2R,6R,11R)]-1,2,3,4,5,6-hexahydro-6,11-dimethyl- 3-(3-methyl-2-butenyl)-2,6-methano-3-benzazocine- 8-ol) from sigma 1 receptor in Dunkin guinea pig brain membrane by radioreceptor binding assay
measured-parameter: Ki (nM)
The response must be a number in nM with no trailing unit.

Please review the following examples before continuing.
COc1cccc2c1CCCC2CCC[N+]1(C)CCN(C2CCCCC2)CC1 (stereo unspecified)	63.7
COc1cccc2c1CCCC2OCCN1CCC(C2CCCCC2)CC1 (stereo unspecified)	91
COc1cccc2c1CCCC2CCCN1CCOCC1 (stereo unspecified)	9.1
COc1cccc2c1CCCC2CCC(=O)N1CCN(C2CCCCC2)CC1 (stereo unspecified)	0.11
C1CCC(CCCN2CCN(C3CCCCC3)CC2)CC1	0.25

Report Ki for COc1cccc2c1CCCC2CCCN1CC[N+](C)(C2CCCCC2)CC1 (stereo unspecified) please.
338

Field request: Ki | item: COc1cccc2c1CCCC2CCCN1CCCCC1 (stereo unspecified)
3.38

Query: Ki; subject: CCN1CCN(C2CCCCC2)CC1
62.4

* * *

Assay: Displacement of [3H]DTG form sigma receptor in guinea pig brain
Set-up: species or system Cavia porcellus
measured-parameter: Ki

What value of measured Ki is listed for COc1cccc2c1CCCC2CCCN1CCNCC1 (stereo unspecified) ?
> 877 nM

* * *

Molecular target: Sigma non-opioid intracellular receptor 1 (Rattus norvegicus)
Sequence (Q9R0C9 whole entry): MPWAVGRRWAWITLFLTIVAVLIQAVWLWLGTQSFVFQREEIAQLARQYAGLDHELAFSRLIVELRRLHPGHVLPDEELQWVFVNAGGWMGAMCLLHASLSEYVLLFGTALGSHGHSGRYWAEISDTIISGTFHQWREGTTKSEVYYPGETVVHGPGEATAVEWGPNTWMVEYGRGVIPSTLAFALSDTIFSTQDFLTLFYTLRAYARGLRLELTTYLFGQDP
Assay: Displacement of [3H](+/-)-pentazocine from sigma 1 receptor in rat whole brain
measured-parameter: pKi
# pKi: negative log10 of molar concentration; output just the value

# lookup: pKi of COc1cccc2c1CCCC2CCCN1CCCCC1 (stereo unspecified)
7.74

* * *

Assay: Displacement of [3H]DTG form sigma 2 receptor in Wistar Hannover rat liver membrane by radioreceptor binding assay
Type: cell membranes
measured-parameter: Ki (nM)
Respond with the bare value in nM.

COc1cccc2c1CCCC2CCCN1CCOCC1 (stereo not drawn)	442
COc1cccc2c1CCCC2CCCN1CCC(C2CCCCC2)CC1 (stereo not drawn)	18.8
COc1cccc2c1CCCC2NCCN1CCC(C2CCCCC2)CC1 (stereo not drawn)	74.7
CCN1CCN(C2CCCCC2)CC1	349

For the compound shown here, COc1cccc2c1CCCC2CCCN1CCC(O)(C2CCCCC2)CC1 (stereo not drawn) , give the reported Ki.
9.27

Please report the recorded Ki for COc1cccc2c1CCCC2CCC[N+]1(C)CCN(C2CCCCC2)CC1 (stereo not drawn) .
6.78

Look up Ki for this compound: COc1cccc2c1CCCC2OCCN1CCC(C2CCCCC2)CC1 (stereo not drawn)
161

For the compound COc1cccc2c1CCCC2CCCCCN1CCC(C2CCCCC2)CC1 (stereo not drawn) , what Ki is on record?
72.3

Request the reported Ki associated with O=C(C1CCCCC1)N1CCN(C2CCCCC2)CC1
201

Using the record for COc1cccc2c1CCCC2CCCN1CC[N+](C)(C2CCCCC2)CC1 (stereo not drawn) , report its Ki.
13

* * *

Target: 3-beta-hydroxysteroid-Delta(8),Delta(7)-isomerase (Cavia porcellus, UniProt Q60490)
Sequence (Q60490 whole entry): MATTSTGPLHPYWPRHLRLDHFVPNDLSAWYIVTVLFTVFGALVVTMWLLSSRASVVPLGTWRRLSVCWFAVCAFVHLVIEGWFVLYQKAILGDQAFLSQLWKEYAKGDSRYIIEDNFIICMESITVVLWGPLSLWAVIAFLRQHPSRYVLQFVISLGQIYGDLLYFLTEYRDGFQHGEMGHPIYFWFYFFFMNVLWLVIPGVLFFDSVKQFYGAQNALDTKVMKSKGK
Experiment: Displacement of [3H](+/-)-emopamil from EBP in Dunkin guinea pig liver membrane by radioreceptor binding assay
# y = Ki below 50 nM (exclusive); n = Ki at/above 50 nM

Recorded results for 5 molecules are shown here.
CCN1CCN(C2CCCCC2)CC1	n
CC(=O)N1CCN(C)CC1	n
COc1cccc2c1CCCC2CCC[N+]1(C)CCN(C2CCCCC2)CC1 (stereo unspecified)	y
COc1cccc2c1CCCC2CCCN1CCC(O)(C2CCCCC2)CC1 (stereo unspecified)	y
COc1cccc2c1CCCC2CCC(=O)N1CCN(C2CCCCC2)CC1 (stereo unspecified)	y

Decide: Ki of C1CCC(N2CCN(C3CCCCC3)CC2)CC1 strictly below 50 nM?
y

A record lists CC(C(O)c1ccc(O)cc1)N1CCC(Cc2ccccc2)CC1 (racemic) . Is its Ki below 50 nM?
y

Is Ki of COc1cccc2c1CCCC2CCCC1CCN(C2CCCCC2)CC1 (stereo unspecified) strictly below 50 nM?
y

Check if Ki falls below 50 nM for COc1cccc2c1CCCC2CCCN1CCNCC1 (stereo unspecified) .
y

Please state whether Ki is below 50 nM for COc1cccc2c1CCCC2CCCN1CCN(C(=O)C2CCCCC2)CC1 (stereo unspecified)
n

I'd appreciate it if you could check whether COc1cccc2c1CCCC2CCCN1CCCCC1 (stereo unspecified) has Ki smaller than 50 nM.
y

I wonder whether COc1cccc2c1CCCC2CCC[N+]1(C)CC[N+](C)(C2CCCCC2)CC1 (stereo unspecified) has Ki below 50 nM. Can you tell?
n

Decide: Ki of COc1cccc2c1CCCC2CCCN1CCC(C2CCCCC2)CC1 (stereo unspecified) strictly below 50 nM?
y

Bench note: check whether CC(=O)N1CCN(C2CCCCC2)CC1 shows Ki below 50 nM
n

A record lists C1CCC(N2CCNCC2)CC1 . Is its Ki below 50 nM?
n

Given C1CCC(CCCN2CCN(C3CCCCC3)CC2)CC1 , is recorded Ki strictly lower than 50 nM?
y

Confirm or reject: Ki of COc1cccc2c1CCCC2CCCNCC(=O)NC1CCCCC1 (stereo unspecified) lies strictly below 50 nM
n

Item COc1cccc2c1CCCC2CCCN1CC[N+](C)(C2CCCCC2)CC1 (stereo unspecified) : Ki beneath 50 nM, strictly?
y

Report whether reported Ki is lower than 50 nM (strictly) for COc1cccc2c1CCCC2CCCN1CCN(CCCC2CCCc3c(OC)cccc32)CC1 (stereo unspecified)
n

Confirm or reject: Ki of O=C(C1CCCCC1)N1CCN(C2CCCCC2)CC1 lies strictly below 50 nM
n

* * *

Experiment: Displacement of [3H]DTG form sigma 2 receptor in Wistar Hannover rat liver membrane by radioreceptor binding assay
Assay type: cell membranes
measured-parameter: log10 of Ki (log10 of the value in nM)
Scale type: logarithmic (base 10). Underlying Ki unit: nM.

Examples with answers:
COc1cccc2c1CCCC2CCCC1CCN(C2CCCCC2)CC1 (stereo not given)	1.42
C1CCC(N2CCN(C3CCCCC3)CC2)CC1	1.06
COc1cccc2c1CCCC2CCCN1CCNCC1 (stereo not given)	2.77
COc1cccc2c1CCCC2CCCNCC(=O)NC1CCCCC1 (stereo not given)	2.90
COc1cccc2c1CCCC2CCCN1CCN(CCCC2CCCc3c(OC)cccc32)CC1 (stereo not given)	2.08
COc1cccc2c1CCCC2CCC(=O)N1CCN(C2CCCCC2)CC1 (stereo not given)	2.25

Return reported log10 of Ki; argument: Cc1ccccc1NC(=N)Nc1ccccc1C [DITOLYLGUANIDINE]
1.51

Reported log10 of Ki, compound COc1cccc2c1CCCC2CCC[N+]1(C)CC[N+](C)(C2CCCCC2)CC1 (stereo not given) : ____
3.23

I am curious: what log10 of Ki value has been reported for COc1cccc2c1CCCC2CCCN1CCN(C(=O)C2CCCCC2)CC1 (stereo not given) ?
2.48

Fill in the blank: the reported log10 of Ki of COc1cccc2c1CCCC2CCCN1CCCCC1 (stereo not given) is ____.
1.61

* * *

Molecular target: Sigma non-opioid intracellular receptor 1 (Cavia porcellus, UniProt Q60492)
Assay: Displacement of [3H](+)-pentazocine ((+)-[2S-(2R,6R,11R)]-1,2,3,4,5,6-hexahydro-6,11-dimethyl- 3-(3-methyl-2-butenyl)-2,6-methano-3-benzazocine- 8-ol) from sigma 1 receptor in Dunkin guinea pig brain membrane by radioreceptor binding assay
pKi: −log10 of the molar value.
Reported pKi values for the following compounds.

COc1cccc2c1CCCC2CCCN1CCN(C(=O)C2CCCCC2)CC1 (stereo not drawn)	< 5.30
C1CCC(N2CCNCC2)CC1	< 5.30

Field: next compound
Find the measured pKi: item CC(=O)N1CCN(C2CCCCC2)CC1 , target or system Sigma non-opioid intracellular receptor 1 (Cavia porcellus, UniProt Q60492).
< 5.30

* * *

Each entry below carries its recorded Ki.
Experiment: Displacement of [3H]DTG form sigma 2 receptor in Wistar Hannover rat liver membrane by radioreceptor binding assay
Format: cell membranes

Past entries and their recorded results:
C1CCC(N2CCNCC2)CC1	> 5 µM
CC(=O)N1CCN(C2CCCCC2)CC1	> 5 µM

Read the next record carefully.
Recorded Ki for CC(=O)N1CCN(C)CC1 , please?
> 10 µM
